- assayedSystem: Type I NOS (rat brain cytosol) (Rattus norvegicus)
- Construct: type I isozyme from rat brain cerebellum; from tissue; host or cells: rat brain (cytosol; cerebellum, phosphocellulose-purified)
- assayProcedure: [3H]-Arginine to [3H]-Citrulline conversion, rat brain cytosol (Type I NOS)
- Type: biochemical
- appliedConditions: 100 μM, read-out: Percent Inhibition of [3H]-Citrulline Formation, Rat Brain Cytosol
Known inhibition at 100 µM of a selection of compounds
measuredEndpoint: inhibition at 100 µM (%)

[[record]]
molecule = "N=C(NC/C=C/[C@H](N)CO)N[N+](=O)[O-]"
assayedsystem = "Type I NOS (rat brain cytosol) (Rattus norvegicus)"
number = 80

[[record]]
molecule = "CCNC(=N)NC/C=C/[C@H](N)CO"
assayedsystem = "Type I NOS (rat brain cytosol) (Rattus norvegicus)"
number = 70

[[record]]
molecule = "CC(C)(C)OC(=O)N1[C@@H](/C=C/CNC(=N)N[N+](=O)[O-])COC1(C)C"
assayedsystem = "Type I NOS (rat brain cytosol) (Rattus norvegicus)"
number = 6

[[record]]
molecule = "C/C(=C\\[C@H](N)CO)CNC(=N)N"
assayedsystem = "Type I NOS (rat brain cytosol) (Rattus norvegicus)"
number = 86

[[record]]
molecule = "CNC(=N)NC/C=C/[C@@H](CO)NC(=O)OC(C)(C)C"
assayedsystem = "Type I NOS (rat brain cytosol) (Rattus norvegicus)"
number = 18

[[record]]
molecule = "C/C(=C\\[C@H]1COC(C)(C)N1C(=O)OC(C)(C)C)CNC(=N)N[N+](=O)[O-]"
assayedsystem = "Type I NOS (rat brain cytosol) (Rattus norvegicus)"
number = 0

[[record]]
molecule = "CNC(=N)NC/C(C)=C/[C@H](N)CO"
assayedsystem = "Type I NOS (rat brain cytosol) (Rattus norvegicus)"
number = 86

